What inhibition was measured for each of the following?
Molecular target: 3-oxo-5-alpha-steroid 4-dehydrogenase 1 (Homo sapiens)
Test: Inhibition of human 5alpha-1 reductase expressed in HEK293 cells assessed as suppression of conversion of [3]androstenedione at 10 uM incubated for 30 mins by radioactivity-based HPLC analysis
Type: cell-based

Recorded results for 3 compounds are shown here.
COMPOUND	TARGET_ENTITY	READING
CC(=O)C1CC[C@H]2[C@@H]3CC=C4C=C(c5nnn[nH]5)CC[C@]4(C)[C@H]3CC[C@]12C (stereo partly specified)	3-oxo-5-alpha-steroid 4-dehydrogenase 1 (Homo sapiens)	95%
C[C@]12CCC(c3nnn[nH]3)=CC1=CC[C@@H]1[C@@H]2CC[C@]2(C)C(=O)CC[C@@H]12	3-oxo-5-alpha-steroid 4-dehydrogenase 1 (Homo sapiens)	81.1%
C=CCN1C(=O)CC[C@H]2[C@@H]3CC=C4C=C(c5nnn[nH]5)CC[C@]4(C)[C@H]3CC[C@@]21C	3-oxo-5-alpha-steroid 4-dehydrogenase 1 (Homo sapiens)	31.7%

Give one value of inhibition per listed compound.
1. CN1C(=O)CC[C@H]2[C@@H]3CC=C4C=C(c5nnn[nH]5)CC[C@]4(C)[C@H]3CC[C@@]21C
2. C[C@]12CC[C@H]3[C@@H](CC=C4C=C(c5nnn[nH]5)CC[C@@H]43)[C@@H]1CCC2=O
3. C[C@]12CCC(c3nnn[nH]3)=CC1=CC[C@@H]1[C@@H]2CC[C@]2(C)NC(=O)CC[C@@H]12

-- reply
1. 6.4%
2. 79.7%
3. 9.6%

---

What Activity was measured for each of the following?
System: Rattus norvegicus
Assay: Effect on organ weight in male wistar rat assessed as seminal vesicles tissue weight per 100g at 5ml/kg, po qd measured on 15th day after 24 hrs of last dose (Rvb=175.439+/-12.833 mg/100g)
Type: ADME, organism-based
Conditions: in vivo
Numbers only, in mg.

Recorded results for 5 compounds are shown here.
COMPOUND	READING
C[C@]12CCC(c3nnn[nH]3)=CC1=CC[C@@H]1[C@@H]2CC[C@]2(C)NC(=O)CC[C@@H]12	183.148
CC(=O)C1CC[C@H]2[C@@H]3CC=C4C=C(c5nnn[nH]5)CC[C@]4(C)[C@H]3CC[C@]12C (some centres undefined)	78.265
CC(C)(C)NC(=O)[C@H]1CC[C@H]2[C@@H]3CC[C@H]4NC(=O)C=C[C@]4(C)[C@H]3CC[C@]12C [FINASTERIDE]	105.51
C[C@]12CCC(c3nnn[nH]3)=CC1=CC[C@@H]1[C@@H]2CC[C@]2(C)C(=O)CC[C@@H]12	95.251
C=CCN1C(=O)CC[C@H]2[C@@H]3CC=C4C=C(c5nnn[nH]5)CC[C@]4(C)[C@H]3CC[C@@]21C	141.816

Give one value of Activity per listed compound.
1. CN1C(=O)CC[C@H]2[C@@H]3CC=C4C=C(c5nnn[nH]5)CC[C@]4(C)[C@H]3CC[C@@]21C
2. C[C@]12CC[C@H]3[C@@H](CC=C4C=C(c5nnn[nH]5)CC[C@@H]43)[C@@H]1CCC2=O

-- reply
199.778
188.757

Give one value of Activity per listed compound.
1. C[C@]12C=CC(=O)N[C@@H]1CC[C@@H]1[C@@H]2CC[C@]2(C)[C@@H](C(=O)Nc3cc(C(F)(F)F)ccc3C(F)(F)F)CC[C@@H]12 [DUTASTERIDE]
2. C[C@]12CC[C@H]3[C@@H](CCC4=CC(=O)CC[C@@]43C)[C@@H]1CC[C@@H]2O

-- reply
118.275
167.305

---

Target: 3-oxo-5-alpha-steroid 4-dehydrogenase 2 (Homo sapiens, UniProt P31213)
Sequence (P31213 whole entry): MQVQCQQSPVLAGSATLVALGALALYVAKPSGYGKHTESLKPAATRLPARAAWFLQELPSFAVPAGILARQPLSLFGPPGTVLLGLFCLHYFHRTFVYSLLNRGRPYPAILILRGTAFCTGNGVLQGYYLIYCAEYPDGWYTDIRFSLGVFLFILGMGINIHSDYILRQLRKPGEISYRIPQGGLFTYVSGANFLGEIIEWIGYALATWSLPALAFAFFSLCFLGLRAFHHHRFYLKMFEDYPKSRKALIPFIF
Test: Inhibition of human 5alpha-2 reductase expressed in HEK293 cells assessed as suppression of conversion of [3]androstenedione incubated for 30 mins by radioactivity-based HPLC analysis
What pIC50 was measured for each of the following?
Answers are plain numbers, as −log10 of the molar value.

Recorded results for 2 molecules are shown here.
MOLECULE	TARGET_ENTITY	pIC50
C[C@]12CCC(c3nnn[nH]3)=CC1=CC[C@@H]1[C@@H]2CC[C@]2(C)C(=O)CC[C@@H]12	3-oxo-5-alpha-steroid 4-dehydrogenase 2 (Homo sapiens, UniProt P31213)	7.08
CN1C(=O)CC[C@H]2[C@@H]3CC=C4C=C(c5nnn[nH]5)CC[C@]4(C)[C@H]3CC[C@@]21C	3-oxo-5-alpha-steroid 4-dehydrogenase 2 (Homo sapiens, UniProt P31213)	6.56

Give one value of pIC50 per listed molecule.
1. C=CCN1C(=O)CC[C@H]2[C@@H]3CC=C4C=C(c5nnn[nH]5)CC[C@]4(C)[C@H]3CC[C@@]21C
2. CC(C)(C)NC(=O)[C@H]1CC[C@H]2[C@@H]3CC[C@H]4NC(=O)C=C[C@]4(C)[C@H]3CC[C@]12C [FINASTERIDE]
3. CC(=O)C1CC[C@H]2[C@@H]3CC=C4C=C(c5nnn[nH]5)CC[C@]4(C)[C@H]3CC[C@]12C (stereo partly specified)

-- reply
1: 6.80; 2: 7.40; 3: 7.81

-- ask GET /values?readout=pIC50&item= `C[C@]12CCC(c3nnn[nH]3)=CC1=CC[C@@H]1[C@@H]2CC[C@]2(C)NC(=O)CC[C@@H]12`
-- reply 6.66

---

Test system: Rattus norvegicus
Test: Effect on organ weight in male wistar rat assessed as adrenal tissue weight per 100g at 5ml/kg, po qd measured on 15th day after 24 hrs of last dose (Rvb=14.762 +/-0.600 mg/100g)
Type: ADME, organism-based
Settings: in vivo
What Activity was measured for each of the following?
Numbers only, in mg.

Recorded results for 8 compounds are shown here.
COMPOUND	VALUE_UNITS	Activity
C[C@]12CCC(c3nnn[nH]3)=CC1=CC[C@@H]1[C@@H]2CC[C@]2(C)C(=O)CC[C@@H]12	mg	17.986
C[C@]12CCC(c3nnn[nH]3)=CC1=CC[C@@H]1[C@@H]2CC[C@]2(C)NC(=O)CC[C@@H]12	mg	16.421
CC(C)(C)NC(=O)[C@H]1CC[C@H]2[C@@H]3CC[C@H]4NC(=O)C=C[C@]4(C)[C@H]3CC[C@]12C [FINASTERIDE]	mg	16.575
C[C@]12CC[C@H]3[C@@H](CCC4=CC(=O)CC[C@@]43C)[C@@H]1CC[C@@H]2O	mg	13.969
C=CCN1C(=O)CC[C@H]2[C@@H]3CC=C4C=C(c5nnn[nH]5)CC[C@]4(C)[C@H]3CC[C@@]21C	mg	24.261
C[C@]12C=CC(=O)N[C@@H]1CC[C@@H]1[C@@H]2CC[C@]2(C)[C@@H](C(=O)Nc3cc(C(F)(F)F)ccc3C(F)(F)F)CC[C@@H]12 [DUTASTERIDE]	mg	14.208
CN1C(=O)CC[C@H]2[C@@H]3CC=C4C=C(c5nnn[nH]5)CC[C@]4(C)[C@H]3CC[C@@]21C	mg	16.362
CC(=O)C1CC[C@H]2[C@@H]3CC=C4C=C(c5nnn[nH]5)CC[C@]4(C)[C@H]3CC[C@]12C (some centres undefined)	mg	17.762

Let us move to another entry and its Activity.
-- ask GET /values?readout=Activity&item= `C[C@]12CC[C@H]3[C@@H](CC=C4C=C(c5nnn[nH]5)CC[C@@H]43)[C@@H]1CCC2=O`
-- reply 19.76

---

Tested on: Rattus norvegicus
Test: Effect on organ weight in male wistar rat assessed as liver tissue weight per 100g at 5ml/kg, po qd measured on 15th day after 24 hrs of last dose (Rvb=2.994+/- 0.254 g/100g)
Format: ADME, organism-based
Conditions: in vivo
What Activity was measured for each of the following?
Numbers only, in g.

Recorded results for 2 compounds are shown here.
COMPOUND	TARGET_ENTITY	Activity (g)
CC(C)(C)NC(=O)[C@H]1CC[C@H]2[C@@H]3CC[C@H]4NC(=O)C=C[C@]4(C)[C@H]3CC[C@]12C [FINASTERIDE]	Rattus norvegicus	3.5097
C[C@]12CCC(c3nnn[nH]3)=CC1=CC[C@@H]1[C@@H]2CC[C@]2(C)C(=O)CC[C@@H]12	Rattus norvegicus	3.257

Give one value of Activity per listed compound.
1. C[C@]12CCC(c3nnn[nH]3)=CC1=CC[C@@H]1[C@@H]2CC[C@]2(C)NC(=O)CC[C@@H]12
2. CC(=O)C1CC[C@H]2[C@@H]3CC=C4C=C(c5nnn[nH]5)CC[C@]4(C)[C@H]3CC[C@]12C (stereo partly specified)
3. CN1C(=O)CC[C@H]2[C@@H]3CC=C4C=C(c5nnn[nH]5)CC[C@]4(C)[C@H]3CC[C@@]21C
4. C=CCN1C(=O)CC[C@H]2[C@@H]3CC=C4C=C(c5nnn[nH]5)CC[C@]4(C)[C@H]3CC[C@@]21C

-- reply
[3.215, 3.649, 3.328, 3.548]
